Sourced from ChEMBL document CHEMBL5055626

molecular target: Neuronal acetylcholine receptor subunit alpha-7 (Rattus norvegicus); experiment: Antagonist activity at rat alpha7 nAChR expressed in xenopus oocytes assessed as inhibition of Ach- induced response at -70 mV holding potential preincubated for 5 mins followed by Ach stimulation by voltage-clamp based electrophysiological method; type: cell-based, Oocyte
Sequence (Q05941 whole entry): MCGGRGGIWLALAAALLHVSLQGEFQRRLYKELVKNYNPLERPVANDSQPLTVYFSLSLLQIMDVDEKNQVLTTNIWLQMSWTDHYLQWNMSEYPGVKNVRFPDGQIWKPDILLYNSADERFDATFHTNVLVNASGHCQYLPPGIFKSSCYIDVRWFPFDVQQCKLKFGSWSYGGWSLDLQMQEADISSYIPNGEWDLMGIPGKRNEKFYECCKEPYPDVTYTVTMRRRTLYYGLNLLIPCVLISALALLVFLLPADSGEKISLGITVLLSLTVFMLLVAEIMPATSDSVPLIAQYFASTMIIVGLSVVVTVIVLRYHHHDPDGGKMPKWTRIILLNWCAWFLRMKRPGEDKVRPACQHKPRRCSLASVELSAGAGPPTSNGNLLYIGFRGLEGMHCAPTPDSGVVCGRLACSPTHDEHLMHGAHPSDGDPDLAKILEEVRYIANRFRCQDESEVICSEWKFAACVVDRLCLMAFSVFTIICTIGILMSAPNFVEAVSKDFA
Where a SMILES comes first, the peptide text is derived from it. Bridges are numbered along the chain shown (N, C = ends).
measure-name: IC50 (nM)
Form entry: value (nM) — number only.

C[C@@H]1NC(=O)[C@@H]2CSSC[C@H](N)C(=O)N[C@@H](CSSC[C@@H](C(N)=O)NC(=O)[C@H](Cc3cnc[nH]3)NC(=O)[C@H](CCC(=O)O)NC(=O)[C@H](Cc3cnc[nH]3)NC1=O)C(=O)N[C@@H](CO)C(=O)N[C@@H](CC(N)=O)C(=O)N1CCC[C@H]1C(=O)N1CCC[C@H]1C(=O)N2 (H-CCSNPPCAHEHC-NH2; disulfide 1-7, 2-12) :: 1810

Recorded result, C[C@@H]1NC(=O)[C@@H]2CSSC[C@H](NC(=O)CN)C(=O)N[C@@H](CSSC[C@@H](C(=O)N[C@@H](CCCNC(=N)N)C(=O)O)NC(=O)[C@H](Cc3cnc[nH]3)NC(=O)[C@H](CCC(=O)O)NC(=O)[C@H](Cc3cnc[nH]3)NC1=O)C(=O)N[C@@H](CO)C(=O)N[C@@H](CC(N)=O)C(=O)N1CCC[C@H]1C(=O)N1CCC[C@H]1C(=O)N2 (H-GCCSNPPCAHEHCR-OH; disulfide 2-8, 3-13) , IC50: 1100
